Ref: BindingDB's records for doi:10.1016/S0960-894X(01)80741-1

Experiment: Compound was tested for inhibitory activity against carboxypeptidase A
pKi: −log10 of the molar value.

mol	pKi
O=C(O)[C@@H](CS)Cc1ccccc1	8.11
